EXPERIMENTAL TARGET: Alpha-bungarotoxin (Bungarus multicinctus) (UniProt P60615)
Sequence (P60615 whole entry, looked up): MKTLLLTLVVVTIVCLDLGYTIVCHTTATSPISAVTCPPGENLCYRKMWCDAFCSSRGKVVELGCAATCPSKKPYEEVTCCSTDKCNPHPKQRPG
PROTOCOL DESCRIPTION: compounds binding labelled alpha-BTX control protein – biochemical, small-molecule microarray, Alexa647 label, 635/667 nm fluorescence, artefact control for SMM control protein annotation, profiling panel (AID 1117)
ASSAY CONDITIONS: alpha-BTX-A647 binding fluorescence, higher = more signal
Measured composite z-score, listed per entry.

Name the recorded composite z-score of the item `CO[C@H]1O[C@H](CO)[C@@H](OC(=O)CCc2ccccc2)[C@@H]2OC(=O)[C@@H](Cc3ccccc3)C/C=C/C[C@H](Cc3ccccc3)C(=O)O[C@@H]12` in your answer. 1.29

Return composite z-score (reported value) for this compound: O=C1OCCC/C=C\[C@H]2OC34C=CCN(c5ccc6ccccc6c5)C(=O)[C@H]3N(CCO)C(=O)[C@@H]4C12 (stereo not given in full) -1.95

Supply reported composite z-score belonging to this compound: `CN(C)C(=O)[C@]1(CCC(=O)OC(C)(C)C)N=C(c2ccc(OCCCO)cc2)O[C@@H]1c1ccccc1CN=[N+]=[N-]` 1.81

Respond only with composite z-score recorded for CCCCC(O)C1C=CC2C(=O)N(C)C(=O)C2N1N(c1ccccc1)c1ccccc1 (stereo not given) 1.8

Identify measured composite z-score associated with `Cc1ccc(N2C(=O)c3ccccc3[C@@H](C(=O)NCCCN(C)C)[C@@H]2c2ccc(CO)cc2)nc1` 0.14

Report composite z-score, nothing else, for this compound: `CCOC(=O)C[C@H]1[C@H](OC(=O)c2cc3ccccc3oc2=O)[C@@H](NC(=O)c2ccc3ccccc3n2)c2cc(OCCCO)ccc2N1C(=O)Cc1ccc(OC)cc1` 0.981

Indicate its recorded composite z-score; the compound in question is `C=C(/C(=C/C[C@H](OC(C)=O)c1ccc(CO)o1)c1cnc2ccccc2c1)C(C)C` 2.15

# return recorded composite z-score for entry `COC(=O)[C@]1(CCS(=O)(=O)c2ccccc2)N=C(c2ccc(OCCCO)cc2)O[C@@H]1c1ccccc1N=[N+]=[N-]` 2.06

// fetch composite z-score given entry `COC(=O)[C@@]1(Cc2ccc(F)cc2)[C@H]2c3cc(C(=O)N(C)C)n(CCc4ccc(OC)c(Br)c4)c3C[C@H]2CN1C(=O)c1ccccc1` 0.653

Provide composite z-score value for the following compound: `Cc1ccc(F)cc1S(=O)(=O)N[C@@H]1CCN(Cc2ccc(Br)cc2)C1` 0.322

Quote composite z-score reported for COC(=O)C1(CC(C)C)C=C2C(=C(c3ccccc3)C(=O)C2C)CN1 (stereo not given) please. -0.194

Output measured composite z-score for this item: `CCC#CCN(Cc1ccccc1Br)[C@H](/C=C/C1CC1)[C@@H](O)Cc1ccccc1` -0.229

Give reported composite z-score value for `CC[C@@H]1C=C(C(=O)O)[C@H](c2ccc(C#N)cc2)N1S(=O)(=O)c1ccc(C)cc1` 0.62

Item CC(C)c1ccc(NN2C(C(O)c3ccc(C#N)cc3)C=CC3C(=O)N(c4ccccc4)C(=O)C32)cc1 (stereo not given) : provide composite z-score 1.85

Specify composite z-score for `C=CCNC(=O)[C@H]1[C@@H]2C(=O)O[C@@H](c3ccccc3)[C@@H](c3ccccc3)N2[C@@H](c2ccccc2OCCO)[C@]12C(=O)N(C(=O)OCCOC)c1ccc(C#CC3(O)CCCCCC3)cc12` and stop. 0.996

Assign composite z-score to the following record: `CCCCCCc1nc(Cc2cc(OC)c(OC)c(OC)c2)cc2c1[Si](C(C)C)(C(C)C)OC2` -0.0869

Annotate the compound `COc1cc2c(cc1O)C=[N+](Cc1sc3ccccc3c1Cl)CC2` with its measured composite z-score. 0.252

Look up composite z-score of `[N-]=[N+]=Nc1ccccc1C[C@@]1(C(N)=O)N=C(c2ccc(OCCCO)cc2)O[C@@H]1c1ccccc1N=[N+]=[N-]` and report it. 1.09

State its composite z-score for this compound: `COC(=O)[C@@]1(Cc2ccc(OC)cc2)[C@H]2c3cc(C(=O)N4CCCC4)n(CCc4c[nH]c5ccc(OC)cc45)c3C[C@H]2CN1C(=O)c1ccccc1` 1.38

Note down composite z-score recorded for `C=C[C@@H](CO)N(Cc1ccc(OC)cc1)S(=O)(=O)c1ccc(Br)cc1` -0.0436

Provide one value: measured composite z-score of `O=C(NCCN1CCOCC1)[C@@H]1c2ccccc2C(=O)N(Cc2ccccc2Cl)[C@H]1c1ccc(CO)cc1` 0.27

Identify measured composite z-score associated with `COc1ccc(CCNC(=O)[C@@]2(Cc3ccccc3I)c3ccccc3C(=O)N(C3CCCCC3)[C@H]2c2ccc(CO)cc2)cc1` 0.678

Give a short answer stating reported composite z-score for `COCCOC(=O)N1C(=O)[C@@]2(c3cc(C#CC4(O)CCCCCC4)ccc31)[C@H](c1ccc(O)cc1)N1[C@H](c3ccccc3)[C@H](c3ccccc3)OC(=O)[C@H]1[C@@H]2C(=O)N1CCN(c2ncccn2)CC1` . 0.383

Return the recorded composite z-score value; entry: `O=c1cccc(-c2ccc([N+](=O)[O-])cc2)o1` 0.38
